test: Selectivity index, ratio of CC50 for C57BL/6 mouse BMDM cells to IC50 for Inhibition of NLRP3 inflammasome activation in LPS-induced C57BL/6 mouse BMDM cells assessed as reduction in IL-1beta release; type: toxicity, cell-based; settings: bone marrow-derived macrophages (BMDM cells), read-out: Ratio CC50/IC50
propertyLabel: selectivity ratio
Enter a number only.

Q. Which selectivity ratio value is on record for CC(=O)Nc1ccc(-c2ccc(NC(=O)Nc3ccc(CN4CCN(C)CC4)c(C(F)(F)F)c3)c(F)c2)cn1 ?
A. 80.3

# next compound below
Q. Which selectivity ratio value is on record for CN1CCN(Cc2ccc(NC(=O)Nc3ccc(-c4ccc(N)nc4)cc3F)cc2C(F)(F)F)CC1 ?
A. 8.26
